test system: K-562 leukemia; assay: NCI-60 one-dose screen, 48 h (100 = growth as untreated, 0 = no growth, -100 = all killed); details: 10 µM unless noted
Compounds without any hit were thinned out: in the full panel of roughly 83,000, 20% have a hit.
Hi there, I'd appreciate the recorded growth for every entry that follows.
Give bare numbers, in %.

See these solved cases before continuing.
[[record]]
compound = "CCNCCNc1cc(-c2ccc(C(F)(F)F)cc2)c(C#N)c2nc3ccccc3n12"
value_reported = -50.9

[[record]]
compound = "CC(=O)O[C@H]1CC2CCC3C(CC[C@@]4(C)C3C[C@H]([N+]3(C)CCCCC3)[C@@H]4OC(C)=O)[C@@]2(C)C[C@@H]1N1CCCCC1 (stereo partly drawn)"
value_reported = 104

[[record]]
compound = "N#CC(C#N)N=Nc1ccc(Br)cc1"
value_reported = 12.5

[[record]]
compound = "CCCCCC(/C=N\\NC(=S)N/N=C/C(=C/c1ccccc1)CCCCC)=C\\c1ccccc1"
value_reported = 19.8

[[record]]
compound = "COc1cc2c(cc1OCCCN1CCN(CCCOc3cc4c(cc3OC)C(=O)N3CC(F)(F)C[C@H]3C=N4)CC1)N=C[C@@H]1CC(F)(F)CN1C2=O"
value_reported = 36.5

[[record]]
compound = "COc1ccc(OC)c(/C=N/Nc2ncnc3c2c(C)nn3C)c1"
value_reported = 93.2


Provide growth values for the following items, in order.
1. Cc1cn(-c2cc(NC(=O)c3cccc(C#Cc4cccc5[nH]nc(N)c45)c3)cc(C(F)(F)F)c2)cn1
2. COc1ccc(NC2=C(I)C(=O)c3ncccc3C2=O)cc1
3. COc1ccc2c(c1)CC[C@H](O)/C2=C/c1cc(OC)c(OC)c(OC)c1

[3.17, 2.18, 8.97]

Provide growth values for the following items, in order.
1. Nc1ncc(-c2ccc3ncnc(Nc4cccc(Cl)c4)c3c2)cn1
2. Cc1ccc(CNc2ccc3nc(CCC4CCCCC4)[nH]c3c2)cc1
3. COc1ccc(NC(=O)c2sc3nc(C)c(C(=O)/C=C/c4ccccc4)cc3c2N)cc1
4. Cc1sc2nc(NCCc3c[nH]c4ccc(Cl)cc34)[nH]c(=O)c2c1C
5. CCC(C)N(CCNc1cc(OC)cc2cccnc12)CC(C)C (stereo not drawn)
6. COC1/C=C/OC2(C)Oc3c(C)c(O)c4c(O)c(c(/C=N/Nc5ccc([N+](=O)[O-])cc5[N+](=O)[O-])c(O)c4c3C2=O)NC(=O)C(C)=C/C=C/C(C)C(O)C(C)C(O)C(C)C(OC(C)=O)C1C (stereo not drawn)

1. 58.2
2. 5.06
3. 14.4
4. 22.3
5. 83.1
6. 4.82

Provide growth values for the following items, in order.
1. CC(=O)O[C@@H]1C[C@]2(C(C)C)O[C@@]1(C)[C@@H]1CCC(C)=C1[C@@H]2OC(=O)/C=C/c1ccccc1
2. CN(C)CCNC(=O)c1ccc(-c2nc3ccc4[nH]ncc4c3c3c2C2CCC3C2)cc1 (stereo not drawn)
3. COC(=O)c1c(C)nc(C)c2c1C(=O)C(Br)=C(NCc1ccccc1)C2=O

81.7
20.7
21

---

tested on: UO-31 renal; test: NCI-60 one-dose screen, 48 h; details: 10 µM unless noted
The panel holds about 83,000 compounds, 20% with a hit somewhere; the sample as a whole holds those more often. Activity calls are given as the source filed them. How the source made its calls: active means growth percent below 10; inactive means the rest.
One label from this list, please: active, inactive

[[record]]
compound = "CCCCCCC12CCC(=O)N1CCc1cncn12 (centres undefined)"
measured_on = "UO-31 renal"
label_class = "inactive"

[[record]]
compound = "COCCn1cc(-c2csc(-c3cn(C)c4ccc(Br)cc34)n2)c2cccnc21"
measured_on = "UO-31 renal"
label_class = "inactive"

[[record]]
compound = "O=C(O)CCCN1C(=O)/C(=C/c2cn(-c3ccccc3)nc2-c2ccc([N+](=O)[O-])cc2)SC1=S"
measured_on = "UO-31 renal"
label_class = "inactive"

[[record]]
compound = "COc1ccc(C(C)=O)cc1S(=O)(=O)Nc1c(N)nc(SC)[nH]c1=O"
measured_on = "UO-31 renal"
label_class = "inactive"

[[record]]
compound = "CC(C)c1ccc(-n2c(=S)[nH]c3sc4cc(O)ccc4c3c2=O)cc1"
measured_on = "UO-31 renal"
label_class = "inactive"

[[record]]
compound = "CC1(C)CC(=O)C2=C(C1)N(c1ccc(OC(F)(F)F)cc1)C(N)=C(C#N)C2c1ccc(Br)cc1F (centres undefined)"
measured_on = "UO-31 renal"
label_class = "inactive"

[[record]]
compound = "CC1CN(S(=O)(=O)c2oc(-c3ccc(Cl)cc3)nc2C#N)CC(C)O1 (centres undefined)"
measured_on = "UO-31 renal"
label_class = "inactive"

[[record]]
compound = "Cc1cc(=O)oc2cc(OCc3nn4c(Nc5nc6ccccc6s5)c(-c5ccccc5)nc4s3)ccc12"
measured_on = "UO-31 renal"
label_class = "inactive"


# input for lookup
Recorded test outcome, item CC/C=C\C[C@H](O)C/C=C1/C(=O)C=C[C@@H]1C/C=C\CCCC(=O)N(C)C
active

---

system: MOLT-4 leukemia; experiment: NCI-60 one-dose screen, 48 h (100 = growth as untreated, 0 = no growth, -100 = all killed); details: 10 µM unless noted
This is part of a sample that, as a whole, favours compounds with a hit. Of some 83,000 tested, about 20% had one in any assay.
So basically: is growth under 20%? Then Satisfied. Not under? Then Not satisfied.

Record excerpt, results attached:
[[record]]
compound = "C=C1CC[C@@H]2[C@](C)(COC(C)=O)[C@H](OC(C)=O)CC[C@@]2(C)[C@@H]1CC(Nc1ccc(S(=O)(=O)Nc2ncccn2)cc1)C1=CCOC1=O (some centres not stated)"
measured_on = "MOLT-4 leukemia"
label_class = "Satisfied"

[[record]]
compound = "S=c1sc2c(Cl)nc(-c3cccnc3)nc2n1-c1ccccc1"
measured_on = "MOLT-4 leukemia"
label_class = "Satisfied"

[[record]]
compound = "Nc1c(C(=O)Nc2ccccc2F)sc2nc3c(cc12)CCCC3"
measured_on = "MOLT-4 leukemia"
label_class = "Not satisfied"

[[record]]
compound = "CCC1=C[C@@H]2C[C@]3(C(=O)OC)c4[nH]c5ccccc5c4CC[N@+](CC(=O)Nc4cc5c(cc4OC)N(C)[C@H]4[C@@](O)(C(=O)OC)[C@H](OC(C)=O)[C@]6(CC)C=CCN7CC[C@]54[C@@H]76)(C2)[C@H]13"
measured_on = "MOLT-4 leukemia"
label_class = "Not satisfied"

[[record]]
compound = "CC(=O)O[C@H]1CC2CCC3C(CC[C@@]4(C)C3C[C@H]([N+]3(C)CCCCC3)[C@@H]4OC(C)=O)[C@@]2(C)C[C@@H]1N1CCCCC1 (some centres not stated)"
measured_on = "MOLT-4 leukemia"
label_class = "Not satisfied"


Say whether its growth is strictly beneath 20%. Entry: CCC(=C(c1ccc(OCCN2CCCCC2)cc1)c1ccc(OCCN2CCCCC2)cc1)c1ccc(Cl)cc1
Satisfied

---

tested on: SNB-75 CNS; assay: NCI-60 one-dose screen, 48 h; settings: 10 µM unless noted
Compounds without any hit were thinned out: in the full panel of roughly 83,000, 20% have a hit. Active and inactive are the calls of the source. How the source made its calls: active means growth percent below 10; inactive means the rest.
One label from this list, please: 1 (yes) = active, 0 (no) = inactive

Record excerpt, results attached:
[[record]]
compound = "c1cnc2c(-c3nc4ccc5[nH]ncc5c4c4c3CCCC4)c[nH]c2c1"
label_class = "0 (no)"

[[record]]
compound = "C#CCNC(=O)[C@H](CC)[C@H]1CC[C@H](C)[C@H]([C@@H](C)[C@H](O)[C@H](C)C(=O)[C@H](CC)C2O[C@]3(C=CC(=O)[C@]4(CC[C@@](C)([C@H]5CC[C@](O)(CC)[C@H](C)O5)O4)O3)[C@H](C)C[C@@H]2C)O1 (some centres undefined)"
label_class = "1 (yes)"

[[record]]
compound = "O=C(N/N=C/c1c(Cl)cccc1Cl)c1cccnc1Nc1cccc(C(F)(F)F)c1"
label_class = "0 (no)"

[[record]]
compound = "C#COc1cccc(Nc2c(C#N)cnc3ncc(NC(=O)CCl)cc23)c1"
label_class = "0 (no)"

[[record]]
compound = "COc1cc(NS(=O)(=O)c2ccc(-c3cnc(C4CC4)o3)cc2)ccc1F"
label_class = "1 (yes)"

[[record]]
compound = "Cc1ccc(C[P+](c2ccccc2)(c2ccccc2)c2ccccc2)cc1"
label_class = "1 (yes)"

[[record]]
compound = "CCOC(=O)C1=C(c2ccccc2)N=C2SC=C(c3ccc(Cl)cc3)N2C1c1ccc(Br)cc1 (centres undefined)"
label_class = "0 (no)"

[[record]]
compound = "O=c1[nH]c(-c2ccccc2)nc2sc3cc(O)ccc3c12"
label_class = "0 (no)"


# input for lookup
Recorded test outcome, item COc1ccc(/C=C/C(=O)c2cc3c(N)c(C(=O)Nc4cccc5ccccc45)sc3nc2C)cc1
0 (no)

Values were extracted from PubChem BioAssay (NCI).
